Tested Target: furin, P09958;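 also: purified furin at 1:10 enzyme:substrate in 50 mM HEPES pH 7.5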
Sequence (P09958 whole entry): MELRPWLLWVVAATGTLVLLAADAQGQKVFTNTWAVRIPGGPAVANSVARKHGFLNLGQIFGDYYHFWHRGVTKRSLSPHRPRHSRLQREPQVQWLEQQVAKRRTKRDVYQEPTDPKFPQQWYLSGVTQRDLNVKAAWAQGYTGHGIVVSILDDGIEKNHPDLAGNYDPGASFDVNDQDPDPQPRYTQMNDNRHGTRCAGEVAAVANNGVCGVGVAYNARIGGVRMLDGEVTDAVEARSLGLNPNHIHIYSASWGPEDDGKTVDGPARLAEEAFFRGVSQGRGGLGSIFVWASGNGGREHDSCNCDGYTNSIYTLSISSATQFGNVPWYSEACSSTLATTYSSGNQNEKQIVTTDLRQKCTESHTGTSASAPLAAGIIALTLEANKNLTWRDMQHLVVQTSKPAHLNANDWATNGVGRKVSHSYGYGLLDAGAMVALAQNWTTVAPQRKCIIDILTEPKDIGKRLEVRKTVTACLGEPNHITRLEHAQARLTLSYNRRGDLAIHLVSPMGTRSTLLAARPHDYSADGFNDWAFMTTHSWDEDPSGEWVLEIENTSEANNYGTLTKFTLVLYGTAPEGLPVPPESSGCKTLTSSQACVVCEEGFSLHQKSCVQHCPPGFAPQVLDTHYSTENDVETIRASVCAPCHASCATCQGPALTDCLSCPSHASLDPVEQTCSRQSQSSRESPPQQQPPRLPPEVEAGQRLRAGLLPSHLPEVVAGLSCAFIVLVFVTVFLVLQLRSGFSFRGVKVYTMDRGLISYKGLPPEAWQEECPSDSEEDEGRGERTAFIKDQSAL
Experiment Summary: furin cleavage Z-score vs untreated control; higher = more cleavage, active = 3.5 or more, inactive = 1 or less, 8 variable residues between constant flanks
Condition Summary: 15 min
Some of the results follow. The hit rate among all sequences tested is not known here.
// furin cleavage Z-score lookup, one value per entry
Answer with a number only.

Worked examples, 3 sequences total:
{"Residue String": "CAERRRQAGAAGNASASA [FS-1879]", "Numeric Result": -0.697}
{"Residue String": "CAWLKRQKRNAGNASASA [FS-318]", "Numeric Result": 12.8}
{"Residue String": "CATWHRLRKGAGNASASA [FS-1427]", "Numeric Result": -0.138}

Asked: Could you tell me which furin cleavage Z-score is on file for CAFPDRVKRNAGNASASA [FS-770] ?
Given back: 3.37
